I'd appreciate it if you could supply koff values for the items below.
target: human IL-6 (human, UniProt P05231 30-212); assay: SPR (Biacore), supernatant antibody on Protein A chip, IL-6 flowed, 37 C
Sequence (P05231 30-212 limits assumed): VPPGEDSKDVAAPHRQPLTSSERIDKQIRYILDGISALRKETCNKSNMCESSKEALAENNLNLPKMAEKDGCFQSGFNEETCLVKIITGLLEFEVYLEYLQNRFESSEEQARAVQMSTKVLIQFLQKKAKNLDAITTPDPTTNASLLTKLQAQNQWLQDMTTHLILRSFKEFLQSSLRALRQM
# number only, unit s⁻¹ dropped from output

If you can, please state the reported koff value of anti-IL-6 antibody, heavy chain S35K, G66D / light chain M32L, M50D, N52S, M88Q (antibody, human IgG1, V domains shown, Human IgG1) VH: EVQLVESGGGLVQPGGSLRLSCAASGFTFSPFAMKWVRQAPGKGLEWVAKISPGGSWTYYSDTVTDRFTFSLDTSKSTAYLQMNSLRAEDTAVYYCARQLWGYYALDIWGQGTLVTVSS VL: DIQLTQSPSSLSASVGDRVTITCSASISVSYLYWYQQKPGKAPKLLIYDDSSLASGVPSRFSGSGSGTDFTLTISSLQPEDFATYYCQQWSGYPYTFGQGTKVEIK .
0.00346

Item anti-IL-6 antibody, heavy chain S35H, G66D / light chain M32L, M50D, N52S, M88Q (antibody, human IgG1, V domains shown, Human IgG1) VH: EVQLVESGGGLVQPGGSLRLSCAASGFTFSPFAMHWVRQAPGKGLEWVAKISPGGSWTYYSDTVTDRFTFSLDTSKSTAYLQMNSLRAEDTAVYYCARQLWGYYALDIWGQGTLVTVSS VL: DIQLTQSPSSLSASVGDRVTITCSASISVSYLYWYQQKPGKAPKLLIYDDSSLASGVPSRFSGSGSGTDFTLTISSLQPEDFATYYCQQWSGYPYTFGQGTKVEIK has what recorded koff?
0.000539

Record request: koff value, item anti-IL-6 antibody, heavy chain T65V, G66D / light chain M32L, M50D, N52S, M88Q (antibody, human IgG1, V domains shown, Human IgG1) VH: EVQLVESGGGLVQPGGSLRLSCAASGFTFSPFAMSWVRQAPGKGLEWVAKISPGGSWTYYSDTVVDRFTFSLDTSKSTAYLQMNSLRAEDTAVYYCARQLWGYYALDIWGQGTLVTVSS VL: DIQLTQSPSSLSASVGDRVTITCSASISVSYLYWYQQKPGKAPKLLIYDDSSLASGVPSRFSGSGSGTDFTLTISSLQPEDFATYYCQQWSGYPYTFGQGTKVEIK
0.000551

Ref: patent US20240209076A1
